- Tested on: MV4-11 cells
- measurement.notes: Cytotoxicity in MV4-11 cells (CellTiter 96 AQueous One Solution), Embodiment 25
- Assay type: cell-based
- condition.parameters: Homo sapiens; MV4-11, 96 hours
pIC50: −log10 of the molar value.
readout.label: pIC50

1. Nc1ccn([C@@H]2O[C@H](CO)[C@@H](O)[C@@H]2O)c(=O)n1: 5.90

====

- System: MV4-11 cells
- measurement.notes: Cytotoxicity in MV4-11 cells (CellTiter 96 AQueous One Solution), Embodiment 37
- Assay type: cell-based
- condition.parameters: Homo sapiens; MV4-11 cell line, 96 hours incubation, CellTiter 96 AQueous One Solution, OD490
readout.label: IC50

1. CC(=O)[C@]1(O)Cc2c(O)c3c(c(O)c2[C@@H](O[C@H]2C[C@H](N)[C@H](O)[C@H](C)O2)C1)C(=O)c1ccccc1C3=O [idarubicin]: < 1 nM
